Molecular target: eeAChE (Electrophorus electricus, UniProt O42275)
Sequence (O42275 24-633): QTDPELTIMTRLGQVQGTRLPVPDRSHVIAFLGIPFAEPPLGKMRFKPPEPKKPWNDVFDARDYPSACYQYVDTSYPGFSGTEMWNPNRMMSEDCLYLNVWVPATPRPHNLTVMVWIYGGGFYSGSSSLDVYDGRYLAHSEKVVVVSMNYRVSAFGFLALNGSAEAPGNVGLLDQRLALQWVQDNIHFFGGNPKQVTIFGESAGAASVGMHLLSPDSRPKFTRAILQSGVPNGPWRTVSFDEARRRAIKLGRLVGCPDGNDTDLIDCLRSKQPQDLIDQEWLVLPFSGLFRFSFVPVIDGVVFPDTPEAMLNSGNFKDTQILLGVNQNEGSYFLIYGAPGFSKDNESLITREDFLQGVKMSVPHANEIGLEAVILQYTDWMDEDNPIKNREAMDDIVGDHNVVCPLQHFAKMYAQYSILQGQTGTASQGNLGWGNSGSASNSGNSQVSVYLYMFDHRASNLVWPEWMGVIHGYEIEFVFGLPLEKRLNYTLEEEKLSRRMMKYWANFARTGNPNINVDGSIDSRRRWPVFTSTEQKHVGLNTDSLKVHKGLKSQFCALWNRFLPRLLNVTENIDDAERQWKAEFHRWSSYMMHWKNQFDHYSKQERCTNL
We begin with a simple list: items and their reported pIC50.
API: returns pIC50 as number; meaning -log10 of concentration in mol/L.

// solved cases for pIC50 follow
[
  {
    "chemical-smiles": "O=c1ccc2ccc(OCCCCCSC(=S)N3CCCCC3)cc2[nH]1",
    "pIC50": 6.62
  },
  {
    "chemical-smiles": "CC(C)C1CCN(C(=S)SCCCCOc2ccc3ccc(=O)[nH]c3c2)CC1",
    "pIC50": 5.02
  },
  {
    "chemical-smiles": "O=c1ccc2ccc(OCCCCSC(=S)N3CCCCC3)cc2[nH]1",
    "pIC50": 6.66
  }
]

INPUT: Would you mind telling me what pIC50 value was observed for CC1CCN(C(=S)SCCCCOc2ccc3ccc(=O)[nH]c3c2)CC1 ?
OUTPUT: 6.16

INPUT: Would you mind telling me what pIC50 value was observed for O=c1ccc2ccc(OCCCSC(=S)N3CCCCC3)cc2[nH]1 ?
OUTPUT: 5.40

INPUT: Would you mind telling me what pIC50 value was observed for Cc1c(C)c2ccc(OCCCCSC(=S)N3CCCCC3)cc2[nH]c1=O ?
OUTPUT: 6.47

INPUT: Would you mind telling me what pIC50 value was observed for O=c1ccc2ccc(OCCCCSC(=S)N3CCC(N4CCCCC4)CC3)cc2[nH]1 ?
OUTPUT: 5.42

INPUT: Would you mind telling me what pIC50 value was observed for Cc1cc(=O)[nH]c2cc(OCCCCSC(=S)N3CCCCC3)ccc12 ?
OUTPUT: 6.52

INPUT: Would you mind telling me what pIC50 value was observed for O=c1ccc2ccc(OCCCCCCSC(=S)N3CCCCC3)cc2[nH]1 ?
OUTPUT: 6.46
